Each entry below lists one item and its recorded pKd value.
assay.target: T1, Extracellular domain (ECD) of the canine IL-4 receptor alpha-AviTag-His Tag (canine)
T1 construct: expressed in CHO cells; also called canine IL-4RA; canine IL4Ra
T1 chain: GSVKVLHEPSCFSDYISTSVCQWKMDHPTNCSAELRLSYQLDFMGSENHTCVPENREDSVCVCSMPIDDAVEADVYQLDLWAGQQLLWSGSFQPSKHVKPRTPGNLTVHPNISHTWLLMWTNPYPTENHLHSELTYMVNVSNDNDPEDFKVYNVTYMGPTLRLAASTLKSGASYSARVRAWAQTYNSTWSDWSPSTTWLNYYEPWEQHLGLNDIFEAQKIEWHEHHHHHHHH
experimental.protocol: SPR, IgG captured via anti-dog Fc
pKd: −log10 of the molar value.

binder: 21188-H + GFmix2_KTHG-L (antibody, V domains shown) VH: EVQLVESGGDLVKPGGSLRLSCVASGFTFRDYAMTWVRQAPGKGLQWLSLISGSGGKTYYADAVKGRFTISRDNAKNTLYLQMNSLRAEDTAVYYCAVDRLTKTIRPQYYGLWHWGQGTLVTVSS VL: DIVMTQTPLSLSVSPGETASISCRSSKSLTYSIGYNYLDWYMQKPGQSPQGLIYLGSKRASGVSDRFSGSGSGADFTLKISRVEADDAGVYYCMQGLHSPLGFGQGTKLEIKR
pKd: 9.77
--
binder: 21188-H + FJP10F04-L (antibody, V domains shown) VH: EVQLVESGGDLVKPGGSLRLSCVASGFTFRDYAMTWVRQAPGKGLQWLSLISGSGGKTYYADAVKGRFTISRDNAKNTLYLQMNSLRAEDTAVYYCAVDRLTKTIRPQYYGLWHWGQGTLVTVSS VL: DIVMTQTPLSLSVSPGETASISCRSSKSLLYSIGYNYLDWYMQKPGQSPQGLIYLGSKRASGVSDRFSGSGSGADFTLKISRVEADDAGVYYCMQGLHSPLTFGQGTKLEIKR
pKd: 9.62
--
binder: 21188-H + 21188-L (antibody, V domains shown) VH: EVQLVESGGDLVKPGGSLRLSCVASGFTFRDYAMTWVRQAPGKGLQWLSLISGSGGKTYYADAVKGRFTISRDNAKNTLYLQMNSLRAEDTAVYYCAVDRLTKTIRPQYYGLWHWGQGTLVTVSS VL: DIVMTQTPLSLSVSPGETASISCRSSQSLTYSIGYNYLDWYMQKPGQSPQGLIYLGSKRASGVSDRFSGSGSGADFTLKISRVEADDAGVYYCMQGLQSPLGFGQGTKLEIKR
pKd: 9.74
--
binder: 21188-H + GFmix3_KTHS-L (antibody, V domains shown) VH: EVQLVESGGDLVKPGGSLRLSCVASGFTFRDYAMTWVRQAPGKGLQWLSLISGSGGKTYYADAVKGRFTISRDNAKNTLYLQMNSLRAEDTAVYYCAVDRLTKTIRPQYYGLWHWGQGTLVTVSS VL: DIVMTQTPLSLSVSPGETASISCRSSKSLTYSIGYNYLDWYMQKPGQSPQGLIYLGSKRASGVSDRFSGSGSGADFTLKISRVEADDAGVYYCMQGLHSPLSFGQGTKLEIKR
pKd: 9.84
